Biological target: human 5-LOX (Homo sapiens, UniProt P09917)
Sequence (P09917 1-674): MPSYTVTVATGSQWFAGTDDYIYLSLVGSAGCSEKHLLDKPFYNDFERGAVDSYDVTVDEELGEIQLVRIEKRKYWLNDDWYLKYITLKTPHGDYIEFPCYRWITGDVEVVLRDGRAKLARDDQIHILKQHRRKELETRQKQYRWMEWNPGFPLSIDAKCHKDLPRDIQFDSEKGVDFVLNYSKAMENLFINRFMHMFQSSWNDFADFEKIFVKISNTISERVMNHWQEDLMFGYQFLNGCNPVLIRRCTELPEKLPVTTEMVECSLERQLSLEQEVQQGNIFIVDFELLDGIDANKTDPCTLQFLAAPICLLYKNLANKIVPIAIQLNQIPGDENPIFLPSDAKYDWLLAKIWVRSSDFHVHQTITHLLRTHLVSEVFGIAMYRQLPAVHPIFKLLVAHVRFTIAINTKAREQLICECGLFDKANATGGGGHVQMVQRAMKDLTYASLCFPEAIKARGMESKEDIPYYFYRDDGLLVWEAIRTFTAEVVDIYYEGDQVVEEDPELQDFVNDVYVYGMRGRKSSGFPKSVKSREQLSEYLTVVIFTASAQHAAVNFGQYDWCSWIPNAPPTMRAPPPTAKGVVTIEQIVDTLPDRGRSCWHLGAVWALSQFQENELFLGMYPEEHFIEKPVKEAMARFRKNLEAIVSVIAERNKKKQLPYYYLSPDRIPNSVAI
Test: Human 5-LOX inhibition screening UV assay
Assay type: biochemical
Conditions: 50 μM compound; 100 μM linoleic acid substrate; 10 min pre-incubation
observation type: effect on h-5-LOX activity (in words)

Check out these entries, answers already filled in.
compound: CCCCCCCCCCc1cccc(O)c1C(=O)O [Compound 15]
effect on h-5-LOX activity (in words): little inhibition
//
compound: CCCCCc1cccc(O)c1C(=O)O [Compound 16]
effect on h-5-LOX activity (in words): little inhibition
//
compound: CCCCCCCOc1ccc(COc2cccc(O)c2C(=O)[O-])cc1.[K+] [Compound 23b]
effect on h-5-LOX activity (in words): no or little inhibition
//
compound: CCCCCCCCCOc1ccc(COc2cccc(O)c2C(=O)[O-])cc1.[K+] [Compound 23c]
effect on h-5-LOX activity (in words): no or little inhibition

Then there is this compound:
Problem: Would you kindly share the measured effect on h-5-LOX activity (in words) for CCCCCCCCCCCCCCCc1cccc(O)c1C(=O)O [Compound 14, Anacardic acid, reference compound] ?
Result: little inhibition

Every entry's value here was drawn from paper PMC4017091.
